Tested on: progesterone receptor (alkaline phosphatase expression in T47D human breast carcinoma cells)
Assay: Progesterone-dependent alkaline phosphatase expression assay (AP assay), agonistic and antagonistic mode
Type: cell-based
Conditions: 48 h, 100 nM compound alone, alkaline phosphatase induction, 100% = 1 nM Dydrogesterone, read-out: PS [100 nM] (% stimulation)
measurementName: activation at 0.1 µM (%)
# unit: % | format: bare number

stdin: Give the reported activation at 0.1 µM for this compound. CCNC(=O)O/N=C/c1ccc(CCC[C@]23CC[C@@H]4[C@@H](CCC5=CC(=O)CC[C@]54C)[C@@H]2CC[C@@H]3C(C)=O)cc1
stdout: 4

stdin: Give the reported activation at 0.1 µM for this compound. CC(=O)[C@H]1CC[C@H]2[C@@H]3C=CC4=CC(=O)CC[C@@]4(C)[C@@H]3CC[C@]12CCCc1ccc(/C=N/O)cc1
stdout: 10

Continuing:
stdin: Give the reported activation at 0.1 µM for this compound. CC(=O)[C@H]1CC[C@H]2[C@@H]3C=CC4=CC(=O)CC[C@@]4(C)[C@@H]3CC[C@]12CCCc1ccccc1
stdout: 8

stdin: Give the reported activation at 0.1 µM for this compound. COc1cc(CCC[C@]23CC[C@@H]4[C@@H](C=CC5=CC(=O)CC[C@]54C)[C@@H]2CC[C@@H]3C(C)=O)cc(OC)c1
stdout: 15

stdin: Give the reported activation at 0.1 µM for this compound. CC(=O)[C@H]1CC[C@H]2[C@@H]3CCC4=CC(=O)CC[C@@]4(C)[C@@H]3CC[C@]12CCCc1ccc(/C=N/O)cc1
stdout: 1

stdin: Give the reported activation at 0.1 µM for this compound. CC(=O)[C@H]1CC[C@H]2[C@@H]3C=CC4=CC(=O)CC[C@@]4(C)[C@@H]3CC[C@]12CCCc1ccc(C(N)=O)cc1
stdout: 7
